Assay: Solubility measurement (DMSO solution precipitation method)
Type: physicochemical
Conditions: aqueous buffer, kinetic from dmso stock; McIlvaine buffer pH 4.5, 24 h, ambient temperature; read-out: Solubility pH 4.5
For each entry below, report its solubility at 24 h value.
Reply with just the number (in µg/mL).

solubility at 24 h measured on `C=C(F)C(=O)N1[C@@H](C)CN(c2cc(O[C@@H](C)[C@@H]3CCCN3C)nc(-c3noc4c3CCC[C@@]43CCCc4sc(N)c(C#N)c43)n2)C[C@@H]1C` = 116

solubility at 24 h measured on `C=C(F)C(=O)N1[C@@H](C)CN(c2cc(O[C@@H](C)[C@@H]3CCCN3C)nc(-c3onc4c3CCC[C@@]43CCCc4sc(N)c(C#N)c43)n2)C[C@@H]1C` = 125

solubility at 24 h measured on `C=CC(=O)N1[C@@H](C)CN(c2cc(O[C@@H](C)[C@@H]3CCCN3C)nc(-c3noc4c3CCC[C@@]43CCCc4sc(N)c(C#N)c43)n2)C[C@@H]1C` = 130

solubility at 24 h measured on `C[C@H](Oc1nc(-c2noc3c2CCC[C@@]32CCCc3sc(N)c(C#N)c32)cc(N2C[C@H](C)N(C(=O)/C=C/c3cccnc3)[C@@H](C)C2)n1)[C@@H]1CCCN1C` = 102

solubility at 24 h measured on `C=CC(=O)N1CCN(c2cc(O[C@@H](C)[C@@H]3CCCN3C)nc(-c3noc4c3CCC[C@@]43CCCc4sc(N)c(C#N)c43)n2)CC12CC2` = 111

solubility at 24 h measured on `COC/C=C/C(=O)N1[C@@H](C)CN(c2cc(-c3noc4c3CCC[C@@]43CCCc4sc(N)c(C#N)c43)nc(O[C@@H](C)[C@@H]3CCCN3C)n2)C[C@@H]1C` = 83

solubility at 24 h measured on `C=C(F)C(=O)N1[C@@H](C)CN(c2cc(-c3onc4c3CCC[C@@]43CCCc4sc(N)c(C#N)c43)nc(O[C@@H](C)[C@@H]3CCCN3C)n2)C[C@@H]1C` = 116

solubility at 24 h measured on `C=C(F)C(=O)N1[C@@H](C)CN(c2cc(-c3noc4c3CCC[C@@]43CCCc4sc(N)c(C#N)c43)nc(O[C@@H](C)[C@@H]3CCCN3C)n2)C[C@@H]1C` = 113

====

Experiment: Caco-2 assay
Assay type: in vitro ADME
Conditions: human, apical to basolateral, 10 μM compound, pH 7.4, read-out: Caco PappAB
For each entry below, report its Papp A→B at 90 min, 10 μM value.
Reply with just the number (in ×10⁻⁶ cm/s).

Papp A→B at 90 min, 10 μM measured on `C=CC(=O)N1[C@@H](C)CN(c2cc(-c3onc4c3CCC[C@@]43CCCc4sc(N)c(C#N)c43)nc(O[C@@H](C)[C@@H]3CCCN3C)n2)C[C@@H]1C` = 1.3

Papp A→B at 90 min, 10 μM measured on `C[C@H](Oc1nc(-c2noc3c2CCC[C@@]32CCCc3sc(N)c(C#N)c32)cc(N2C[C@H](C)N(C(=O)/C=C/CF)[C@@H](C)C2)n1)[C@@H]1CCCN1C` = 2.4

Papp A→B at 90 min, 10 μM measured on `C=CC(=O)N1[C@@H](C)CN(c2cc(O[C@@H](C)[C@@H]3CCCN3C)nc(-c3noc4c3CCC[C@@]43CCCc4sc(N)c(C#N)c43)n2)C[C@@H]1C` = 6.3

Papp A→B at 90 min, 10 μM measured on `C=CC(=O)N1[C@@H](C)CN(c2cc(O[C@@H](C)[C@@H]3CCCN3C)nc(-c3onc4c3CCC[C@@]43CCCc4sc(N)c(C#N)c43)n2)C[C@@H]1C` = 2.9

Papp A→B at 90 min, 10 μM measured on `C=C(F)C(=O)N1[C@@H](C)CN(c2cc(-c3noc4c3CCC[C@@]43CCCc4sc(N)c(C#N)c43)nc(O[C@@H](C)[C@@H]3CCCN3C)n2)C[C@@H]1C` = 9.2
